Numbers sourced from the supplement of paper PMC12855868.

B1: library; numbered along this chain (parent)
chain: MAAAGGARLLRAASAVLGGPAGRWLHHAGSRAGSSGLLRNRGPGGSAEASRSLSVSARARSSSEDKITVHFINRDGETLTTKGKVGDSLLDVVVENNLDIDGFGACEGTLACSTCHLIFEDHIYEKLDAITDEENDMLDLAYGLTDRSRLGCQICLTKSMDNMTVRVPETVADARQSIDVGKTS

- Variants of: B1
- TEST_DETAILS: scaled log2 fold change in cell abundance, elesclomol vs control (0 = silent mean, 1 = nonsense mean) (scaled log2 ratio); higher = higher viability under elesclomol (loss of FDX1 cuproptosis function);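 also: variant abundance is its share of total variant reads in each endpoint sample, from next-generation sequencing of the integrated ORF PCR-amplified out of genomic DNA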
- COND: with ABC1 FDX1 KO; elesclomol 5 nM; glucose 10 mM; 14 days
MEASURED_PARAMETER: scaled log2 fold change
Keep it simple and answer with nothing but the number.

// scaled log2 fold change lookup, variant = D179Y , result: 0.0967

scaled log2 fold change measured on V171Y = -0.342

# scaled log2 fold change of A13Q = 0.0333

A32R yielded scaled log2 fold change of 0.589

In plain terms, G83N has a documented scaled log2 fold change of 0.304

For this variant ( G143M ), measured scaled log2 fold change is 0.337

According to the records, this variant T170G displays scaled log2 fold change of 0.233

According to the records, this variant E134M displays scaled log2 fold change of 0.946

# variant M163D ; its scaled log2 fold change = 1.16

Recorded result, R8H , scaled log2 fold change: 0.292

Per the records, this variant ( H26R ) has scaled log2 fold change equal to -0.169

The recorded scaled log2 fold change for V94H is -0.328

scaled log2 fold change measured on Y142H = -0.0863

Lab note: V55M gave scaled log2 fold change of 0.374

// field: scaled log2 fold change; key: N97R ; value = -0.00904

# scaled log2 fold change of D128S = -0.519

get_value(item= G5V , readout=scaled log2 fold change) returns 0.268

L140I yielded scaled log2 fold change of -0.0613

Consider A2E . Its measured scaled log2 fold change is -0.26

scaled log2 fold change reported for this variant G29S : 0.00542

# scaled log2 fold change of A49W = 0.372

Noted for C155F : its scaled log2 fold change reads -0.0473
